Tested on: T1, human Her2 (ECD)-Fc protein (human, UniProt P04626 23-652)
T1 construct: extracellular domain; Made in HEK293F cells; also called hHer2 (ECD)-Fc antigen; Her2 (ECD)-Fc antigen; not shown: TEV restriction site at the C-terminal of hHer2 (ECD); IgG1 Fc of the pFUSE-IgG1 vector
Protocol details: PE-ELISA, crude extract on antigen-coated plate
Measured A405+ by item
Field format: number, assumed A405, no unit text.

Study these solved cases before continuing.
binder="Nanobody No. 29 (VHH, also called 29; not shown: tags (HA, His) implied by anti-HA detection and nickel column) VHH: QVQLQESGGGSVQAGGSLRLSCTASGFTFDDLDMRWYRQAPGNECELVSIINSDGRTYYADSVKGRFAISQNNAKNTVYLQMNSLKPEDTAVYYCAADQHRYGLGTCEALDYWGRGTQVTVSS" test_readout=A405+ reported_value=1.48
binder="Nanobody No. 17 (VHH, camel VHH from pMECs phage display vector; also called Antibody no; 17; not shown: tags (HA, His) implied by anti-HA detection and nickel column) VHH: QVQLQESGGGSVQAGGSLRLSCTASGFTFDDSDMGWYRQAPGNECELVSTISSDGSTYYADSVKGRFTISQDNAKNTVYLQMNSLKPEDTAVYYCADVQIPYGLGTCESLDYWGRGTQVTVSS" test_readout=A405+ reported_value=1.88
binder="Nanobody No. 10 (VHH, camel VHH from pMECs phage display vector; also called Antibody no; 10; not shown: tags (HA, His) implied by anti-HA detection and nickel column) VHH: QVQLQESGGGSVQAGETLKLSCTASGFTFDDSTMAWYRQAPGNECKLVSTISSDGSTYYADSVKGRFTISQDNAKNTVYLQMNSLKPEDTAVYYCAADDQNYELGTCEALDYWGRGTQVTVSS" test_readout=A405+ reported_value=1.63

Next binder, please.
Ask: What does the record list as A405+ for Nanobody No. 18 (VHH, also called 18; not shown: tags (HA, His) implied by anti-HA detection and nickel column) VHH: QVQLQESGGGSVQAGQTLRLSCTASGFTFDDSDMAWYRQAPGNECELVSKMRSDGSTYYADSVKGRFTISQDNAKNTVYLQMNSLKPEDTAVYYCAEDLPYGLGTCTSLDYWGRGTQVTVSS ?
Reply: 1.59

Each recorded value in this set is attributed to patent US20230263916A1.
